For each entry below, report its relative binding value.
- Assayed target: T1, purified, recombinant parvovirus B19 capsid proteins VP1 and VP2 (VP1-VP2) (human parvovirus B19, UniProt P07299 1-781; P07299 1-554)
- T1 construct: Surrogate target: partially purified/purified recombinant VP1 + VP2 preparation; Made by methods of US 5,498,413 or WO 91/12269
- Protocol description: phage ELISA, constant phage against decreasing VP1-VP2 coat; normalized signal interpolated at 1:10 dilution of VP1-VP2
Positions of bridges follow the written chain, without caps; N, C: chain ends. No end group written: not given here.
Answers are plain numbers.

Parameter requested: relative binding. Apply to each item below.
1. FFCGFWHDCHP (peptide, not shown: large carriers, disulfide 3-9 (inferred); also: displayed on M13 phage, coat protein fusion and flanking residues not given here, Tested as phage isolate displaying the peptide (TN7 library)) [TN7 isolate A07]
2. FCHLWWPFQCA (peptide, not shown: large carriers, disulfide 2-10 (inferred); also: displayed on M13 phage, coat protein fusion and flanking residues not given here, Tested as phage isolate displaying the peptide (TN9 library)) [TN9 isolate E03]
3. AFCHFWFHGCDD (peptide, not shown: large carriers, disulfide 3-10 (inferred); also: displayed on M13 phage, coat protein fusion and flanking residues not given here, Tested as phage isolate displaying the peptide (TN8 library)) [TN8 isolate A05]

[27, 40, 30]

Where do these numbers come from? They come from patent US20020031761A1.
